Origin of values: the supplement of paper PMC6555819

- System: LXRa:RXRa (NR concentration 270 nM, RXRa partner concentration 90 nM)
- assay_details: PBM binding z-score (relative to random genomic background probes); higher = stronger binding; sequences stand for … in GC…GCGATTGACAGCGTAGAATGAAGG
Criterion: PBM binding z-score meeting or surpassing 4. Met: True. Not met: False.

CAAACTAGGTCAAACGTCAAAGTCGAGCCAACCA
True
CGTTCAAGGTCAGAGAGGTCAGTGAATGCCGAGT
True
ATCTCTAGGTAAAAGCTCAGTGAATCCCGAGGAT
False
TCTATTAGTTGAAGCGCAACCGACGAGTCCGTTT
False
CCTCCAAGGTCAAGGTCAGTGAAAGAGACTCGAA
True
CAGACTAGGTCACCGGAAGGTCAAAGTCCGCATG
True

Evaluate `CCTACTGGGTCAAGGTCATTGATCAGTCAAAGCA` : PBM binding z-score at minimum 4?
True

Evaluate `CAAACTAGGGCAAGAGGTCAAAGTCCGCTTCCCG` : PBM binding z-score at minimum 4?
True

Evaluate `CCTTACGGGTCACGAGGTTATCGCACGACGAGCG` : PBM binding z-score at minimum 4?
True

Evaluate `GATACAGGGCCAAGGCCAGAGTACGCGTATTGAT` : PBM binding z-score at minimum 4?
False

Evaluate `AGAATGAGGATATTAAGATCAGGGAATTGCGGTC` : PBM binding z-score at minimum 4?
False
